Test system: hedgehog signaling pathway
Experiment: Gli-Luc Reporter Assay for Hh Pathway Inhibition (TMHh-12 cells, pTA-8×Gli-Luc reporter)
Format: cell-based, Mouse
Details: Mus musculus, TMHh12, enzymatic and cellular assays for the inhibition of hedgehog signaling pathways; read-out: IC50 Ranges
pIC50: −log10 of the molar value.
measurementType: pIC50

1) Cc1ccc(Nc2cccc3c2CCN(S(C)(=O)=O)C3)cc1-c1ccc(N(C)C)nn1 [Compound 254] = 8.00 to 9.00
2) CCOc1ccc(-c2cc(Nc3cccc4c3CCN(CCS(C)(=O)=O)C4)ccc2C)nn1 [Compound 294] = 8.00 to 9.00
3) Cc1ccc(Nc2cccc3c2CCN(S(C)(=O)=O)C3)cc1-c1ncc(-c2cncnc2)[nH]1 [Compound 59] = 8.00 to 9.00
4) COc1ccc(-c2cc(Nc3cccc4c3CCN(S(C)(=O)=O)C4)ccc2C)cn1 [Compound 98] = 7.00 to 8.00

====

Below: a set of entries, each annotated with reported IC50.
Tested on: hedgehog signaling pathway
Experiment: Gli-Luc Reporter Assay for Hh Pathway Inhibition (TMHh-12 cells, pTA-8×Gli-Luc reporter)
Assay type: cell-based, Mouse
Settings: Mus musculus, TMHh12, enzymatic and cellular assays for the inhibition of hedgehog signaling pathways; read-out: IC50 Ranges
measurementType: IC50

1) Cc1ccc(Nc2cccc3c2CCN(S(C)(=O)=O)C3)nc1-c1ccccn1 = 1 to 10 nM
2) Cc1ccc(Nc2cccc3c2CCN(S(C)(=O)=O)C3)cc1-c1ccccn1 = 0.001 to 1 nM
3) Cc1ccnc(-c2cc(Nc3cccc4c3CCN(S(C)(=O)=O)C4)ccc2C)n1 = 10 to 100 nM
4) CCC(CC)(C(=O)O)C(=O)N1CCc2c(cccc2Nc2ccc(Cl)c(-c3nc(-c4ccccc4)c[nH]3)c2)C1 = 1 to 10 nM
5) Cc1ccc(Nc2cccc3c2CCN(S(C)(=O)=O)C3)cc1-c1ncc(Cl)cc1F = 0.001 to 1 nM
6) CCOc1ccc(-c2cc(Nc3cccc4c3CCN(CCS(=O)(=O)CC)C4)ccc2C)nn1 = 1 to 10 nM
7) Cc1ccc(Nc2nccc3c2CCN(C2CCS(=O)(=O)CC2)C3)cc1-c1cc2ccccc2cn1 = 0.001 to 1 nM
8) Cc1ccc(Nc2cccc3c2CCN(S(C)(=O)=O)C3)cc1-c1ccc(C(=O)N(C)C)cc1 = 100 to 1000 nM
9) Cc1ccc(Nc2cccc3c2CCN(S(C)(=O)=O)C3)cc1-c1ccc(OC(F)(F)F)cc1 = 10 to 100 nM
10) Clc1ccc(Nc2cccc3c2CCN(Cc2nn[nH]n2)C3)cc1-c1ncc(-c2ccccc2)[nH]1 = 1 to 10 nM
11) CN(C)c1ccc2nc(-c3cc(Nc4cccc5c4CCN(S(C)(=O)=O)C5)ccc3Cl)[nH]c2c1 = 1 to 10 nM
12) Cc1ccc(Nc2cccc3c2CCN(S(C)(=O)=O)C3)cc1-c1ccc(C#N)cc1 = 1 to 10 nM
13) Cc1ccc(Nc2cccc3c2CCN(S(C)(=O)=O)C3)cc1-c1ccc(N(C)C)cn1 = 0.001 to 1 nM
14) CN(C)Cc1ccc(Nc2cccc3c2CCN(S(C)(=O)=O)C3)cc1-c1ccc(C#N)cc1 = 100 to 1000 nM
15) Cc1ccc(Nc2cccc3c2CCN(CCS(C)(=O)=O)C3)cc1-c1ccc(C#N)cn1 = 1 to 10 nM
16) Cc1cnc(-c2cc(Nc3cccc4c3CCN(S(C)(=O)=O)C4)ccc2C)nc1 = 10 to 100 nM
17) COc1ccc(-c2cc(Nc3cccc4c3CCN(S(C)(=O)=O)C4)ccc2C)nc1 = 0.001 to 1 nM
18) Cc1cc2c(cn1)cc(-c1cc(Nc3cccc4c3CCN(S(C)(=O)=O)C4)ccc1C)c(=O)n2C = 100 to 1000 nM
19) Cc1ccc(Nc2cccc3c2CCN(S(C)(=O)=O)C3)cc1-c1ncc(-c2ccc(C#N)cc2)[nH]1 = 0.001 to 1 nM
20) COc1ccnc(-c2cc(Nc3cccc4c3CCN(S(C)(=O)=O)C4)ccc2C)n1 = 10 to 100 nM
21) Cc1ccc(Nc2cccc3c2CCN(CCS(C)(=O)=O)C3)cc1-c1cc2ccccc2cn1 = 0.001 to 1 nM
22) Cc1ccc(Nc2cccc3c2CCN(CC(C)(C)O)C3)cc1-c1ccc(F)cn1 = 1 to 10 nM
23) FC(F)(F)CN1CCc2c(cccc2Nc2ccc(Cl)c(-c3ncc(-c4ccccc4)[nH]3)c2)C1 = 0.001 to 1 nM
24) Cc1cnc(-c2cc(Nc3cccc4c3CCN(S(C)(=O)=O)C4)ccc2C)c(F)c1 = 0.001 to 1 nM
25) Cc1ccc(Nc2cccc3c2CCN(S(C)(=O)=O)C3)cc1C(=O)N(C)c1ccccc1 = 100 to 1000 nM
26) Cc1ccc(Nc2cccc3c2CCN(S(C)(=O)=O)C3)cc1-c1ccc(-c2nnn[nH]2)cc1 = > 10000 nM
27) Cc1ccc(Nc2cccc3c2CCN(C2CCS(=O)(=O)C2)C3)cc1-c1cc2ccccc2cn1 (centres unmarked) = 0.001 to 1 nM
28) O=C(C(O)CO)N1CCc2c(cccc2Nc2ccc(Cl)c(-c3ncc(-c4ccccc4)[nH]3)c2)C1 (centres unmarked) = 0.001 to 1 nM
29) CCOc1ccc(-c2cc(Nc3cccc4c3CCN(C3CCS(=O)(=O)CC3)C4)ccc2C)nn1 = 1 to 10 nM
30) Cc1ccc(Nc2ncnc3c2CCN(S(C)(=O)=O)C3)cc1-c1ccc(F)cn1 = 10 to 100 nM
31) COc1ccc(-c2cc(Nc3cccc4c3CCN(S(C)(=O)=O)C4)ccc2C)nn1 = 1 to 10 nM
32) Cc1ccc(Nc2cccc3c2CCN(C2CS(=O)(=O)C2)C3)cc1-c1ncccc1F = 1 to 10 nM
